# Procedure Text: Photometric activity determination of 7β-HSDH and mutants (decrease in absorbance at 340 nm, DHCA reduction with NADPH)
# Format: biochemical
# Condition Details: Table 4, variants modified at position 64; 10 mM DHCA, NADPH, KPi pH 8.0
Measurement Label: Volumetric activity (U/ml)
Output spec: scalar in U/ml, unitless text.

Value of Volumetric activity reported for the molecule 7β-HSDH [R64L]: 7β-HSDH mutant, R in position 64 replaced by L (protein, UniProt A4ECA9 1-263, looked up, variant R64L) 7beta-hydroxysteroid …: MNLREKYGEWGLILGATEGVGKAFCEKIAAGGMNVVMVGRREEKLNVLAGEIRETYGVETKVVLADFSQPGAAETVFAATEGLDMGFMSYVACLHSFGKIQDTPWEKHEAMINVNVVTFLKCFHHYMRIFAAQDRGAVINVSSMTGISSSPWNGQYGAGKAFILKMTEAVACECEGTGVDVEVITLGTTLTPSLLSNLPGGPQGEAVMKIALTPEECVDEAFEKLGKELSVIAGQRNKDSVHDWKANHTEDEYIRYMGSFYRD is 334

Value of Volumetric activity reported for the molecule 7β-HSDH [R64P]: 7β-HSDH mutant, R in position 64 replaced by P (protein, UniProt A4ECA9 1-263, looked up, variant R64P) 7beta-hydroxysteroid …: MNLREKYGEWGLILGATEGVGKAFCEKIAAGGMNVVMVGRREEKLNVLAGEIRETYGVETKVVPADFSQPGAAETVFAATEGLDMGFMSYVACLHSFGKIQDTPWEKHEAMINVNVVTFLKCFHHYMRIFAAQDRGAVINVSSMTGISSSPWNGQYGAGKAFILKMTEAVACECEGTGVDVEVITLGTTLTPSLLSNLPGGPQGEAVMKIALTPEECVDEAFEKLGKELSVIAGQRNKDSVHDWKANHTEDEYIRYMGSFYRD is 402.0

Value of Volumetric activity reported for the molecule 7β-HSDH [R64D]: 7β-HSDH mutant, arginine in position 64 exchanged for aspartic acid (D) (protein, UniProt A4ECA9 1-263, looked up, variant R64D) 7beta-hydroxysteroid …: MNLREKYGEWGLILGATEGVGKAFCEKIAAGGMNVVMVGRREEKLNVLAGEIRETYGVETKVVDADFSQPGAAETVFAATEGLDMGFMSYVACLHSFGKIQDTPWEKHEAMINVNVVTFLKCFHHYMRIFAAQDRGAVINVSSMTGISSSPWNGQYGAGKAFILKMTEAVACECEGTGVDVEVITLGTTLTPSLLSNLPGGPQGEAVMKIALTPEECVDEAFEKLGKELSVIAGQRNKDSVHDWKANHTEDEYIRYMGSFYRD is 641.6

Value of Volumetric activity reported for the molecule 7β-HSDH [R64K]: 7β-HSDH mutant, R in position 64 replaced by K (protein, UniProt A4ECA9 1-263, looked up, variant R64K) 7beta-hydroxysteroid …: MNLREKYGEWGLILGATEGVGKAFCEKIAAGGMNVVMVGRREEKLNVLAGEIRETYGVETKVVKADFSQPGAAETVFAATEGLDMGFMSYVACLHSFGKIQDTPWEKHEAMINVNVVTFLKCFHHYMRIFAAQDRGAVINVSSMTGISSSPWNGQYGAGKAFILKMTEAVACECEGTGVDVEVITLGTTLTPSLLSNLPGGPQGEAVMKIALTPEECVDEAFEKLGKELSVIAGQRNKDSVHDWKANHTEDEYIRYMGSFYRD is 296.5
